Consider the following compounds; for each one, report its half-life.
Assay comment: Half life in rat liver microsomes
Condition context: microsomes
Answers are plain numbers, in h.

Look over these answered cases.
1) Cc1cccc(NC(=O)c2nc(C)n(-c3ccc(Cl)cc3)c2C)n1	0.983
2) Cc1cccc(NC(=O)c2nc(C)n(-c3ccc(F)c(Cl)c3)c2C)n1	1.45
3) Cc1c(C(=O)Nc2ccnc(Cl)c2)nn(C)c1-c1ccc(F)cc1	2.68
4) Cc1cccc(NC(=O)c2nc(C)n(-c3ccc(F)cc3)c2C)n1	1.77
5) Cc1ccnc(NC(=O)c2nn(C)c(-c3ccc(F)cc3)c2C)c1	1.98

For each of the compounds below, note its half-life.
1. Cc1cccc(NC(=O)c2nn(C)c(-c3ccc(F)c(F)c3)c2C)n1
2. Cc1csc(NC(=O)c2nn(C)c(-c3ccc(F)cc3)c2C)n1
3. Cc1cccc(NC(=O)c2nn(C)c(-c3ccncc3)c2C)n1

stdout:
2.48
1.02
0.617

###

Assay comment: Half life in rat liver microsomes
Condition context: microsomes
Consider the following compounds; for each one, report its half-life.

1. Cc1nc(C(=O)Nc2ccnc(Cl)c2)c(C)n1-c1ccc(F)cc1	1.57 h
2. Cc1nc(C(=O)Nc2ccc(F)cn2)c(C)n1-c1ccc(F)cc1	1.83 h
3. Cc1nc(NC(=O)c2nn(C)c(-c3ccc(F)cc3)c2C)ccc1F	2.77 h

Now, please, on to the next compound.
Looking up `Cc1cccc(NC(=O)c2nn(C)c(-c3cccc(Cl)c3)c2C)n1` , I see its half-life listed as 0.917 h

###

Consider the following compounds; for each one, report its log10 of IC50.
Tested system: Metabotropic glutamate receptor 5 (Homo sapiens)
Assay comment: Negative allosteric modulation of human mGluR5 expressed in HEK293 cells assessed as calcium mobilization by FLIPR assay
The base-10 logarithm of IC50, taken with IC50 in µM, is what appears here.

Look over these answered cases.
1. Cc1cccc(NC(=O)c2nn(C)c(OC3CCCCC3)c2C)n1	-1.04
2. Cc1nc(C(=O)Nc2cccc(C(F)(F)F)n2)c(C)n1-c1ccc(F)cc1	-0.76
3. Cc1cccc(NC(=O)c2nc(C)n(-c3ccc(Cl)cc3)c2C)n1	-1.77
4. Cc1cccc(NC(=O)c2nn(C)c(OCC3CCCCC3)c2C)n1	0.11

For each of the compounds below, note its log10 of IC50.
1. Cc1cccc(NC(=O)c2nc(C)n(-c3ccc(F)cc3)c2C)n1
2. Cc1cccc(NC(=O)c2nn(C)c(-c3ccc(Cl)c(Cl)c3)c2C)n1
3. COc1ccc(-c2c(C)c(C(=O)Nc3cccc(C)n3)nn2C)cc1
4. Cc1cccc(NC(=O)c2nn(C)c(C3CCCCC3)c2C)n1
5. Cc1ccnc(NC(=O)c2nn(C)c(-c3ccc(F)cc3)c2C)c1
6. Cc1ccc(NC(=O)c2nn(C)c(-c3ccc(F)cc3)c2C)nc1

stdout:
-1.89
-2.64
-1.77
-1.60
-1.08
-1.04

###

Tested system: Metabotropic glutamate receptor 5 (Homo sapiens, UniProt P41594)
Sequence (P41594 whole entry): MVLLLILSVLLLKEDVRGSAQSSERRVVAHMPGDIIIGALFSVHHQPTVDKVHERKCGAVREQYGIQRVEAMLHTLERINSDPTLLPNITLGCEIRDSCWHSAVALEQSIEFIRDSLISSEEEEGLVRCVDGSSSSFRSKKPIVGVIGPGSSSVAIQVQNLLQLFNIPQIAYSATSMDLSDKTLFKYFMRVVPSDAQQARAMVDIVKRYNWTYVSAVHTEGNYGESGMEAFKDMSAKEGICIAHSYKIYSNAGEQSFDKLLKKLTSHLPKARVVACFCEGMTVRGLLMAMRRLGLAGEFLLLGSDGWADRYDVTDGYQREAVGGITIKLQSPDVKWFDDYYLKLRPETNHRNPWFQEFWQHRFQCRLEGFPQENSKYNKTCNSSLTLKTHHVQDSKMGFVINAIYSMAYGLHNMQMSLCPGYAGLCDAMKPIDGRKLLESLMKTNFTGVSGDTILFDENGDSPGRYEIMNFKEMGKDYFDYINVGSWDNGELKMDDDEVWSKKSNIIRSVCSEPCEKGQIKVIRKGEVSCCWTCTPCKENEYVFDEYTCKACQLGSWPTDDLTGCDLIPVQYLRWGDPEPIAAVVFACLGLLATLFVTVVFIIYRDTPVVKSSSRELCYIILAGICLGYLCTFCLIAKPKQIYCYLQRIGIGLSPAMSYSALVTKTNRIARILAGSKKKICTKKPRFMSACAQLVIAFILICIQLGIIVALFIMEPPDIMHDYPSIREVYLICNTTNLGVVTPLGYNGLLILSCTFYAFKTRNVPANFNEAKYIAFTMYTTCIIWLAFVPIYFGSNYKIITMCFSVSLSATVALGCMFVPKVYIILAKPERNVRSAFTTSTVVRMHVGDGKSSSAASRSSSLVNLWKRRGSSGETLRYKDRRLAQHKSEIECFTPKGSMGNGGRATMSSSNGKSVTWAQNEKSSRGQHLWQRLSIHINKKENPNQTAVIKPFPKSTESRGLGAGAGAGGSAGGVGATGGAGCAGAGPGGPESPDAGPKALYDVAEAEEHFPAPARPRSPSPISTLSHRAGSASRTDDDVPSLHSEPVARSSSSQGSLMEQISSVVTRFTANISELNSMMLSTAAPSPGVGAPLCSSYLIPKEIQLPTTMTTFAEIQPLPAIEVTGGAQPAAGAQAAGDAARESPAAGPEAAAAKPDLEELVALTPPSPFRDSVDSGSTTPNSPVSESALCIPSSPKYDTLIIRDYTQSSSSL
Assay comment: Negative allosteric modulation of human mGluR5 expressed in HEK293 cells assessed as calcium mobilization by FLIPR assay
Consider the following compounds; for each one, report its IC50.
Answers are plain numbers, in nM.

Look over these answered cases.
1) Cc1csc(NC(=O)c2nn(C)c(-c3ccc(F)cc3)c2C)n1	16.4
2) CCc1c(C(=O)Nc2cccc(C)n2)nn(C)c1-c1ccccc1	27
3) Cc1c(C(=O)Nc2ccc(Cl)cn2)nn(C)c1-c1ccc(F)cc1	184

For each of the compounds below, note its IC50.
1. Cc1c(C(=O)Nc2cccc(Cl)n2)nn(C)c1-c1ccc(F)cc1
2. Cc1cccc(NC(=O)c2nc(C)n(-c3ccc(Cl)c(Cl)c3)c2C)n1
3. Cc1cccc(NC(=O)c2nn(C)c(-c3ccc(F)cc3F)c2C)n1
4. Cc1cccc(NC(=O)c2nn(C)c(-c3ccc(C(F)(F)F)cc3)c2C)n1

stdout:
16.4
5.8
3.7
38

For each of the compounds below, note its IC50.
1. Cc1nc(C(=O)Nc2ccnc(Cl)n2)c(C)n1-c1ccc(F)cc1
2. Cc1c(C(=O)Nc2cc(Cl)ccn2)nn(C)c1-c1ccc(F)cc1
3. Cc1c(C(=O)Nc2ccc(F)cn2)nn(C)c1-c1ccc(F)cc1

stdout:
40.4
195
10.3

###

Tested system: Metabotropic glutamate receptor 5 (Homo sapiens, UniProt P41594)
Assay comment: Negative allosteric modulation of human mGluR5 expressed in HEK293 cells assessed as calcium mobilization by FLIPR assay
Consider the following compounds; for each one, report its pIC50.
Give bare numbers, as −log10 of the molar value.

Look over these answered cases.
1. COc1ccc(-n2c(C)nc(C(=O)Nc3cccc(C)n3)c2C)cc1	6.83
2. Cc1cccc(NC(=O)c2nn(C)c(-c3ccccc3)c2C)n1	8.36
3. Cc1cccc(NC(=O)c2nn(C)c(-c3ccncc3)c2C)n1	7.15
4. Cc1c(C(=O)Nc2ccnc(Cl)n2)nn(C)c1-c1ccc(F)cc1	8.15
5. Cc1nc(C(=O)Nc2ccc(F)cn2)c(C)n1-c1ccc(F)cc1	7.05

For each of the compounds below, note its pIC50.
1. Cc1cccc(NC(=O)c2nc(C)n(-c3ccc(F)c(Cl)c3)c2C)n1
2. Cc1nc(C(=O)Nc2cccc(C#N)n2)c(C)n1-c1ccc(F)cc1

stdout:
[7.84, 7.11]

###

Consider the following compounds; for each one, report its pIC50.
Tested system: Metabotropic glutamate receptor 5 (Homo sapiens)
Assay comment: Negative allosteric modulation of human mGluR5 expressed in HEK293 cells assessed as calcium mobilization by FLIPR assay
One number for each entry, as −log10 of the molar value.

Look over these answered cases.
1) Cc1nc(NC(=O)c2nn(C)c(-c3ccc(F)cc3)c2C)ccc1F	7.55
2) Cc1cccc(NC(=O)c2nn(C)c(-c3ccc(Cl)cc3)c2C)n1	8.42
3) O=C(Nc1cc(Cl)ccc1O)c1noc2c1CCC2	6.43

Now, please, on to the next compound.
Simply: `Cc1cnc(NC(=O)c2nn(C)c(-c3ccc(F)cc3)c2C)s1` , Metabotropic glutamate receptor 5 (Homo sapiens), pIC50 = 5.57

Cited source: ChEMBL document CHEMBL2346654
